ASSAY_TEXT: Hepatic Microsome Stability Human
Assay type: in vitro ADME
MEASUREMENT_SETUP: no NADPH
The reader will find reported Hepatic Microsome Stability (% Remaining at 1 hr) Human (no NADPH) values listed item by item below.
EXPERIMENTAL_READOUT: Hepatic Microsome Stability (% Remaining at 1 hr) Human (no NADPH) (% Remaining)

{"COMPOUND": "O=C(/C=C/c1nc2ccccc2[nH]1)c1c(O)nc2ccc(Cl)cc2c1-c1ccccc1 [BI-69A11, reference compound]", "MEASURE_UNIT": "% Remaining", "RESULT_NUMBER": 61.74}
{"COMPOUND": "O=C(/C=C/c1ccccc1)c1c(C2CCCCC2)c2cc(Cl)ccc2[nH]c1=O", "MEASURE_UNIT": "% Remaining", "RESULT_NUMBER": 57.73}
{"COMPOUND": "O=C(/C=C/c1cncc(F)c1)c1c(-c2ccccc2)c2cc(Cl)ccc2[nH]c1=O", "MEASURE_UNIT": "% Remaining", "RESULT_NUMBER": 57.84}
{"COMPOUND": "O=C(/C=C/c1nc2cc(Cl)ccc2[nH]1)c1c(-c2ccccc2)c2cc(Cl)ccc2[nH]c1=O", "MEASURE_UNIT": "% Remaining", "RESULT_NUMBER": 54.66}
